measured-attribute: melting point

Recorded melting point, per entry:
compound=CC(=O)OCC(=O)Nc1cc(-c2ccncc2)c[nH]c1=O result="267 to 290 °C"
compound="NC(=O)CN(CCCc1ccc(F)cc1)C1CCC(c2ccc3[nH]c(=O)oc3c2)CC1 (stereo unspecified)" result="266 to 270 °C"
compound=COc1ccc2ncc(N)c(Nc3ccccc3Cl)c2c1 result="120 to 123 °C"

Q: Fill in: melting point of Clc1ccc(C(Br)Br)c(C(Br)Br)c1 is ___
Result: 108 to 111 °C

Q: Next compound: NCCC(O)(c1ccc(Br)cc1)c1cccnc1 (stereo unspecified)
Result: 95 to 115 °C

Q: // query: COc1cc(/C=C/CCO)ccc1OCc1ccccc1
Result: 57 to 61 °C

Q: # repeat for O=C(Nc1ccnn1-c1ccc(Cl)cc1Cl)c1cccnc1Cl
Result: 162 to 164 °C

Q: Next: O=C1NC(=S)SC1=Cc1ccc2c(c1)OCO2
Result: 194 to 195 °C

Q: How about COC(=O)NC(C(=O)O)c1ccc([N+](=O)[O-])cc1 (stereo unspecified) ?
Result: 152 °C

Q: Input Nc1ccc2sc(-c3cccnc3)nc2c1
Result: 189 to 196 °C

Q: Request: C#CCN1C(=O)C(=O)N(c2cc(Cl)ccc2C)C1=S
Result: 162 to 164 °C

----------
measured-attribute: melting point

These solved cases illustrate the format of a correct answer.
compound=COC(=O)C1=C(C(=O)OC)C2OC1c1cc3c(cc12)OCO3 result="117 to 119 °C"
compound=Nc1ccccc1-c1cnoc1 result="48 to 51 °C"
compound="COC(=O)c1ncn2c1C(C)N=C(c1ccccc1F)c1cc(Cl)ccc1-2 (centres undefined)" result="190 to 191 °C"

Q: State the recorded melting point for this entry: CC1(NC(=O)C(F)(F)F)CN(c2cc3c(cc2F)c(=O)c(C(=O)O)cn3-c2ccc(F)cc2)C1
Result: 146 to 151 °C

Q: Entry O=[N+]([O-])c1ccc(SSc2nccc(O)n2)c(C(Cl)(Cl)Cl)c1 please
Result: 174 °C

Q: Can you handle CC(C)NS(=O)(=O)c1cccc(NC(=O)c2cnn3c(C(F)(F)F)cc(-c4ccc(C(F)(F)F)cc4)nc23)c1 next?
Result: 222 °C

Q: // next record CC(C)OP(=O)(OC(C)C)c1nc(N)nc(P(=O)(OC(C)C)OC(C)C)n1
Result: 123 to 124 °C

Q: Another compound to check: CC1(N2C(=O)c3cccc(NCc4ccco4)c3C2=O)CCC(=O)NC1=O (centres undefined)
Result: 158 to 160 °C

Q: Do the same for COc1ccc(-c2nccs2)cc1OC1CCCC1 please
Result: 72 to 75 °C

----------
Reported values of melting point for individual entries

Below: 6 compounds and their reported melting point.
compound=COc1ccccc1NC(=O)Nc1nc(Oc2ccc3ccccc3c2)nc(N(C)CCC(=O)O)n1 result="178 to 180 °C"
compound=COC(=O)/C=C/n1cnc2c(C)cc(C)cc2c1=O result="139 to 141 °C"
compound="CC(N)C(C)n1ncn(-c2ccc(N3CCN(c4ccc(O)cc4)CC3)cc2)c1=O (stereo not given)" result="237 °C"
compound=CC(C)(C)OC(=O)NCCNC(=O)c1ccc(Cl)cc1 result="141 to 143 °C"
compound=Oc1cccc(-n2nnnc2S)c1 result="176 to 178 °C"
compound="OC(Cn1cncn1)(c1ccc(F)cc1F)C(c1ccc(OCc2ccccc2)cc1)n1cncn1 (stereo not given)" result="144 to 147 °C"

Q: I'd like to know its melting point. The compound in question is COc1ccccc1C(Cl)=C(Cl)n1ccnc1
Result: 101 °C

Q: CN1CCN(c2ccc3cnn(C)c3n2)CC1 ?
Result: 106 to 107 °C

Q: Check CC(C)OC(=O)N1CCN(c2ccc3oc(-c4ccc(S(C)(=O)=O)cc4F)nc3c2)CC1 too.
Result: 231 to 234 °C

Q: Again, but for O=C(Nc1ccccc1)N1CCc2[nH]cc3c(=O)n(-c4ccc(Cl)cc4)nc-3c2C1
Result: 293 to 295 °C

----------
measured-attribute: melting point

Solved cases (6 shown):
compound=C=CCNc1nc(NCC=C)c2scc(C)c2n1 measured_attribute="melting point" result="77 to 80 °C"
compound="[N-]=[N+]=NCC1Cc2cc(I)c3[nH]c(=O)ccc3c2O1 (stereo not given)" measured_attribute="melting point" result="175 °C"
compound=NC(=O)c1sc2nccc(N3CCCC3)c2c1N measured_attribute="melting point" result="275 to 283 °C"
compound="O=Cc1cccc(C(CC2=NCCN2)c2ccccn2)c1 (stereo not given)" measured_attribute="melting point" result="138 to 139 °C"
compound=O=C(Nc1ccc(F)cc1)C12CC3CC(CC(C3)C1)C2 measured_attribute="melting point" result="170 to 171 °C"
compound=CC(=O)Nc1c(C(O)(C(F)(F)F)C(F)(F)F)cc(Cl)c2ccccc12 measured_attribute="melting point" result="161 to 162 °C"

Q: Looking for the measured melting point of Cn1cc(CN2CCCNC2=C[N+](=O)[O-])cn1 , can you help?
Result: 186 to 190 °C

Q: Okay, and O=C(NCc1ccccc1)c1oc(=O)c2ncccc2c1-c1ccccc1 ?
Result: 188 to 189 °C

Q: What about CC(=O)Oc1cc(S(=O)(=O)Oc2ccc(C(=O)c3c(Cc4ccccc4)sc(C)c3C)cc2C2CCCC2)ccc1C(=O)O ?
Result: 94 to 96 °C

Q: Same lookup for Nc1ccc(CS(=O)(=O)CCO)c(CS(=O)(=O)CCO)c1 , please.
Result: 168 to 171 °C

----------
measured-attribute: melting point

compound=Cc1cc2c(s1)Nc1ccccc1N=C2N1CCN(C)CC1 measured_attribute="melting point" result="190 to 193 °C"
compound=COc1ccc(C2=CCC(=O)CC2)c2c1OCCO2 measured_attribute="melting point" result="56 to 59 °C"
compound=N#CC(N=Nc1cc(S(=O)(=O)Cl)ccc1OC(=O)c1ccccc1)=C(OC(=O)c1ccccc1)c1ccccc1 measured_attribute="melting point" result="153 to 155 °C"
compound="COc1ccc(C2(C)CNC(=O)O2)cc1OC(C)C (centres undefined)" measured_attribute="melting point" result="67 to 69.5 °C"
compound="CC1(c2ccc(F)cc2)CN(Cc2ccc(COc3cccc4c3CN(C3CCC(=O)NC3=O)C4=O)cc2)CCO1 (centres undefined)" measured_attribute="melting point" result="118 to 120 °C"
compound=Cn1cc(CCl)c(-c2ccc(Cl)cc2C(=O)c2ccccc2F)n1 measured_attribute="melting point" result="153 to 155 °C"
compound=COc1cc(CCO)cc(OC)c1-c1ccc(C[C@H](NC(=O)c2c(Cl)cccc2Cl)C(=O)OC(C)(C)C)cc1 measured_attribute="melting point" result="96 to 98 °C"
compound=COc1cc(N)c(Cl)cc1Cn1nc(-c2ccc(C(F)(F)F)cc2)[nH]c1=O measured_attribute="melting point" result="> 270 °C"

Q: Need melting point, item COC(=O)C1=CSCC1OC (centres undefined)
Result: 79 to 81 °C

----------
Measured melting point values are reported for all entries that follow.

Below are worked cases with known answers.
compound="COc1cc(OC)c2c(=O)[nH]c(-c3ccc(OC)c(-c4ccc(S(C)=O)cc4)n3)nc2c1 (stereo unspecified)" result="266 to 267 °C"
compound="CCC1(c2ccncc2)CCC(=O)NC1=O (stereo unspecified)" result="134 to 136 °C"
compound=O=C(NCC1CCCCCC1)c1cc(-c2ccc(Cl)c(C(=O)O)n2)ccc1Cl result="189 to 190 °C"
compound=COc1cc(OC)cc(C(Cc2ccc(OC)c(OC)c2)=NNS(=O)(=O)c2ccc(C)cc2)c1 result="132 to 133 °C"
compound=CC(=O)OCc1cc(C(C)=O)ccc1OC(C)=O result="47 to 48 °C"

Q: // returns reported melting point for input CN1CC(CCN2CCN(c3ccc(F)cc3)CC2)OC1=O (stereo unspecified)
Result: 82 to 84 °C

Q: Would you kindly repeat that for O=C1NCCN(Cc2ccc(Cl)cc2)C1c1ccccc1 (stereo unspecified) ?
Result: 103 to 104 °C

Q: Continue with CCN1C(=O)c2cscc2Nc2ccccc21
Result: 175 to 177 °C

Q: Follow-up item: CC(C)n1nc(-c2c(NCc3ccncc3)nc(N)nc2-c2ccccc2)ccc1=O
Result: 222 °C

Q: Same thing, different compound: CC(C)(C)Nc1nc2cc(Cl)c(Cl)cc2[nH]1
Result: 219 to 221 °C

----------
measured-attribute: melting point

Previously resolved entries follow.
molecule=CCCN(c1ccncc1)N1C(=O)C2(CCN(C)CC2)c2ccccc21 result="125 to 127 °C"
molecule="Cc1ccc(C2NCCS2)cc1 (stereo not drawn)" result="92 to 93 °C"
molecule=COc1ccc(C(=O)Nc2ccc(F)cc2)cc1N([N+](=O)[O-])S(=O)(=O)c1ccccc1 result="221 to 240 °C"
molecule=CCC(=NOc1ccc(Cl)cc1)c1cc(Cl)ccc1NS(=O)(=O)C(F)(F)F result="87 to 88 °C"
molecule=Cc1cc2c(cc1Cl)N(C(=O)Nc1ccncc1)CC2 result="> 230 °C"

Q: Query (molecule): C=C(C)COc1ccc(C(=O)C=Cc2ccccc2)c(O)c1 ; field requested: melting point
Result: 114 to 115 °C

Q: Repeat for the following molecule: CN(C)Cc1ccc(CSCCNc2nc(N)n[nH]2)o1
Result: 76 to 78.5 °C

Q: Now try O=C1CCc2ccc(Oc3cccc(CN4CCN(c5cccc(Cl)c5Cl)CC4)c3)cc2N1 .
Result: 182 to 183 °C
